Tested on: Escherichia coli TOP10
MEASUREMENT_NOTES: shrunken log2 fold change of peptide-encoding DNA abundance (4.5 h post-induction vs induction); higher = less antimicrobial activity (less host growth inhibition)
CONDITIONS: time post-induction: 4.5 h; library: site-saturation at positions 5, 18, 19, 20
Label True when shrunken log2 fold change is at or above -0.1; otherwise label False.

CHAIN: RRIRARPPRLPRPRPRPIMEPRP
CLASS_LABEL: True

CHAIN: RRIRCRPPRLPRPRPRPMDSPRP
CLASS_LABEL: False

CHAIN: RRIRNRPPRLPRPRPRPDDQPRP
CLASS_LABEL: True

CHAIN: RRIRGRPPRLPRPRPRPKQAPRP
CLASS_LABEL: True

CHAIN: RRIRNRPPRLPRPRPRPVETPRP
CLASS_LABEL: True

CHAIN: RRIRPRPPRLPRPRPRPWYDPRP
CLASS_LABEL: True

CHAIN: RRIRSRPPRLPRPRPRPTMYPRP
CLASS_LABEL: False

CHAIN: RRIRQRPPRLPRPRPRPMNYPRP
CLASS_LABEL: False

----------
System: Escherichia coli TOP10
MEASUREMENT_NOTES: shrunken log2 fold change of peptide-encoding DNA abundance (4.5 h post-induction vs induction); higher = less antimicrobial activity (less host growth inhibition)
CONDITIONS: time post-induction: 4.5 h; library: site-saturation at positions 5, 18, 19, 20

CHAIN: RRIRARPPRLPRPRPRPDDVPRP
shrunken log2 fold change: 0.0875
//
CHAIN: RRIRKRPPRLPRPRPRPNKPPRP
shrunken log2 fold change: -0.0304
//
CHAIN: RRIRARPPRLPRPRPRPNIIPRP
shrunken log2 fold change: -0.248
//
CHAIN: RRIRLRPPRLPRPRPRPRYKPRP
shrunken log2 fold change: -0.225
//
CHAIN: RRIRDRPPRLPRPRPRPYYFPRP
shrunken log2 fold change: -0.209
//
CHAIN: RRIRLRPPRLPRPRPRPPETPRP
shrunken log2 fold change: 0.0221
//
CHAIN: RRIRGRPPRLPRPRPRPHPPPRP
shrunken log2 fold change: 0.759
//
CHAIN: RRIRWRPPRLPRPRPRPVTLPRP
shrunken log2 fold change: -0.147

----------
Test system: Escherichia coli TOP10
MEASUREMENT_NOTES: shrunken log2 fold change of peptide-encoding DNA abundance (4.5 h post-induction vs induction); higher = less antimicrobial activity (less host growth inhibition)
CONDITIONS: time post-induction: 4.5 h; library: site-saturation at positions 5, 18, 19, 20

CHAIN: RRIRCRPPRLPRPRPRPNKSPRP
shrunken log2 fold change: -0.584
//
CHAIN: RRIRARPPRLPRPRPRPQCPPRP
shrunken log2 fold change: 0.108
//
CHAIN: RRIRGRPPRLPRPRPRPRPGPRP
shrunken log2 fold change: 1.34
//
CHAIN: RRIRKRPPRLPRPRPRPIHEPRP
shrunken log2 fold change: -0.0401
//
CHAIN: RRIRWRPPRLPRPRPRPVQYPRP
shrunken log2 fold change: -0.108
//
CHAIN: RRIRIRPPRLPRPRPRPRFTPRP
shrunken log2 fold change: -0.043
//
CHAIN: RRIRPRPPRLPRPRPRPPMSPRP
shrunken log2 fold change: -0.0803
//
CHAIN: RRIRPRPPRLPRPRPRPHMIPRP
shrunken log2 fold change: -0.98
//
CHAIN: RRIRIRPPRLPRPRPRPTYYPRP
shrunken log2 fold change: -0.827
//
CHAIN: RRIRYRPPRLPRPRPRPRKHPRP
shrunken log2 fold change: -0.483
//
CHAIN: RRIRKRPPRLPRPRPRPDTNPRP
shrunken log2 fold change: 0.335
//
CHAIN: RRIRARPPRLPRPRPRPAPAPRP
shrunken log2 fold change: 0.922
//
CHAIN: RRIRRRPPRLPRPRPRPAFYPRP
shrunken log2 fold change: 0.654
//
CHAIN: RRIRLRPPRLPRPRPRPIQAPRP
shrunken log2 fold change: 0.0789
//
CHAIN: RRIRERPPRLPRPRPRPSRMPRP
shrunken log2 fold change: -0.0294
//
CHAIN: RRIRGRPPRLPRPRPRPTKMPRP
shrunken log2 fold change: 0.521
//
CHAIN: RRIRRRPPRLPRPRPRPMQEPRP
shrunken log2 fold change: -0.206
//
CHAIN: RRIRWRPPRLPRPRPRPGKVPRP
shrunken log2 fold change: -0.132
//
CHAIN: RRIRVRPPRLPRPRPRPSAGPRP
shrunken log2 fold change: 0.295
//
CHAIN: RRIRYRPPRLPRPRPRPKRHPRP
shrunken log2 fold change: -0.159
//
CHAIN: RRIRCRPPRLPRPRPRPDWHPRP
shrunken log2 fold change: -0.358
//
CHAIN: RRIRTRPPRLPRPRPRPWPQPRP
shrunken log2 fold change: 0.323
//
CHAIN: RRIRMRPPRLPRPRPRPNWKPRP
shrunken log2 fold change: -0.0351
//
CHAIN: RRIRERPPRLPRPRPRPEFIPRP
shrunken log2 fold change: -0.335
//
CHAIN: RRIRLRPPRLPRPRPRPKNFPRP
shrunken log2 fold change: 0.492
//
CHAIN: RRIRWRPPRLPRPRPRPVEMPRP
shrunken log2 fold change: 0.206
//
CHAIN: RRIRQRPPRLPRPRPRPWWAPRP
shrunken log2 fold change: -0.014
//
CHAIN: RRIRERPPRLPRPRPRPTLMPRP
shrunken log2 fold change: 0.0249
//
CHAIN: RRIRHRPPRLPRPRPRPVAQPRP
shrunken log2 fold change: 0.0207
//
CHAIN: RRIRQRPPRLPRPRPRPTHHPRP
shrunken log2 fold change: 0.0945
//
CHAIN: RRIRERPPRLPRPRPRPCDMPRP
shrunken log2 fold change: -0.0119
//
CHAIN: RRIRARPPRLPRPRPRPDDWPRP
shrunken log2 fold change: 1.12

----------
System: Escherichia coli TOP10
MEASUREMENT_NOTES: shrunken log2 fold change of peptide-encoding DNA abundance (4.5 h post-induction vs induction); higher = less antimicrobial activity (less host growth inhibition)
CONDITIONS: time post-induction: 4.5 h; library: site-saturation at positions 5, 18, 19, 20
# shrunken log2 fold change annotations

CHAIN: RRIRKRPPRLPRPRPRPPFYPRP
EXPERIMENTAL_SYSTEM: Escherichia coli TOP10
shrunken log2 fold change: 0.229
//
CHAIN: RRIRHRPPRLPRPRPRPQPEPRP
EXPERIMENTAL_SYSTEM: Escherichia coli TOP10
shrunken log2 fold change: -0.0374
//
CHAIN: RRIRSRPPRLPRPRPRPSMNPRP
EXPERIMENTAL_SYSTEM: Escherichia coli TOP10
shrunken log2 fold change: -0.454
//
CHAIN: RRIRFRPPRLPRPRPRPVFAPRP
EXPERIMENTAL_SYSTEM: Escherichia coli TOP10
shrunken log2 fold change: 0.158
//
CHAIN: RRIRWRPPRLPRPRPRPWWGPRP
EXPERIMENTAL_SYSTEM: Escherichia coli TOP10
shrunken log2 fold change: 0.0568
//
CHAIN: RRIRYRPPRLPRPRPRPQYIPRP
EXPERIMENTAL_SYSTEM: Escherichia coli TOP10
shrunken log2 fold change: 0.0111
//
CHAIN: RRIRIRPPRLPRPRPRPKTQPRP
EXPERIMENTAL_SYSTEM: Escherichia coli TOP10
shrunken log2 fold change: -0.0269
//
CHAIN: RRIRARPPRLPRPRPRPHWPPRP
EXPERIMENTAL_SYSTEM: Escherichia coli TOP10
shrunken log2 fold change: 0.233

----------
System: Escherichia coli TOP10
MEASUREMENT_NOTES: shrunken log2 fold change of peptide-encoding DNA abundance (4.5 h post-induction vs induction); higher = less antimicrobial activity (less host growth inhibition)
CONDITIONS: time post-induction: 4.5 h; library: site-saturation at positions 5, 18, 19, 20
Reported shrunken log2 fold change maps to class as: lo = under -0.2, med = from -0.2 up to -0.05, hi = -0.05 and over

CHAIN: RRIRVRPPRLPRPRPRPNALPRP
EXPERIMENTAL_SYSTEM: Escherichia coli TOP10
CLASS_LABEL: lo
//
CHAIN: RRIRYRPPRLPRPRPRPKETPRP
EXPERIMENTAL_SYSTEM: Escherichia coli TOP10
CLASS_LABEL: hi
//
CHAIN: RRIRVRPPRLPRPRPRPFRMPRP
EXPERIMENTAL_SYSTEM: Escherichia coli TOP10
CLASS_LABEL: lo
//
CHAIN: RRIRMRPPRLPRPRPRPYHEPRP
EXPERIMENTAL_SYSTEM: Escherichia coli TOP10
CLASS_LABEL: lo
//
CHAIN: RRIRIRPPRLPRPRPRPKCKPRP
EXPERIMENTAL_SYSTEM: Escherichia coli TOP10
CLASS_LABEL: lo
//
CHAIN: RRIRDRPPRLPRPRPRPPPGPRP
EXPERIMENTAL_SYSTEM: Escherichia coli TOP10
CLASS_LABEL: hi
//
CHAIN: RRIRERPPRLPRPRPRPDEWPRP
EXPERIMENTAL_SYSTEM: Escherichia coli TOP10
CLASS_LABEL: lo
//
CHAIN: RRIRVRPPRLPRPRPRPMAIPRP
EXPERIMENTAL_SYSTEM: Escherichia coli TOP10
CLASS_LABEL: med
//
CHAIN: RRIRMRPPRLPRPRPRPTSIPRP
EXPERIMENTAL_SYSTEM: Escherichia coli TOP10
CLASS_LABEL: med
//
CHAIN: RRIRYRPPRLPRPRPRPCISPRP
EXPERIMENTAL_SYSTEM: Escherichia coli TOP10
CLASS_LABEL: hi
//
CHAIN: RRIRVRPPRLPRPRPRPVCSPRP
EXPERIMENTAL_SYSTEM: Escherichia coli TOP10
CLASS_LABEL: med
//
CHAIN: RRIRNRPPRLPRPRPRPGNWPRP
EXPERIMENTAL_SYSTEM: Escherichia coli TOP10
CLASS_LABEL: hi
//
CHAIN: RRIRMRPPRLPRPRPRPSNIPRP
EXPERIMENTAL_SYSTEM: Escherichia coli TOP10;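 note: peptides expressed intracellularly from a pBAD plasmid library in pooled LB shake-flask culture, induced with 0.3% L-arabinose, DNA abundance read by NGS, three biological replicates, DESeq2 with apeglm shrinkage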
CLASS_LABEL: lo

Where these numbers come from: the supplement of paper PMC9112550
